test system: OVCAR-4 ovarian; test: NCI tumour cell line growth inhibition, 48 h
The reader will find reported TGI values listed item by item below.
Just the number please, in µM, no unit attached.

Solved entries (count: 3):
- Cc1cc(C#Cc2ccc(C(C)(C)C)cc2)ccc1-n1c(/C=C/c2ccc(O)cc2O)nc2ccccc2c1=O: 14.7
- CC1=C(CC(=O)c2cccc([N+](=O)[O-])c2)C(=O)c2ccccc2C1=O: 7
- CCCCCCNC(=O)Oc1ccc(/C(=C(\C)c2ccc(Cl)cc2)c2ccc(OCCN3CCCCC3)cc2)cc1: 7.73

Requested read-out: TGI. Entry: `O=[N+]([O-])c1ccc(N2CCOCC2)c2c1no[n+]2[O-]`
3.99
